molecular target: Sho1, P40073; experiment: SPOT array; details: median of control spots 1148
Sequence (P40073 287-367): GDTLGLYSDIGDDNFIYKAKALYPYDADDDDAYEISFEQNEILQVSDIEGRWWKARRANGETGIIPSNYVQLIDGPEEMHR
QUANTITY: SPOT intensity

Please review the entries below; each comes with its answer.
- LLLLFVPDSPYDPAI: 0
- RRGPAPPPPPRASRP: 0
- KWVRRPKLMTPLTFS: 19

a: RHLKLVPSTPMDIPW
b: KKIRLIFTYPSTVGR
[Q] When a and b are compared, which has the higher number for SPOT intensity? Use the label to indicate which entry you chose.
[A] b
(b: 253, a: 72)

1: LKHGWKPLRPIKLIS
2: PALPSLPPPPLLNVD
[Q] Could you point out whether the larger SPOT intensity belongs to 1 or to 2 ? Your answer should be the label attached to the chosen record.
[A] 2

Ref: paper PMC2756588
